# ASSAYED SYSTEM: Sulfonylurea receptor 2, Kir6.2 (Homo sapiens) (UniProt Q14654+O60706)
# PROCEDURE TEXT: Ability to open human urinary bladder Kir6.2 containing SUR2B in Ltk cells by FLIPR assay relative to P1075
# Type: functional, cell-based
RECORDED ENDPOINT: Efficacy (%)
State just the number; it will be interpreted in %.

Recorded results for 3 compounds are shown here.
COMPOUND: CC[C@H]1OCC(O)=C2C1=NC1=C(C(=O)COC1)[C@H]2c1ccc(Cl)c(Br)c1 (stereo in doubt; 75a)
QUANTITATIVE READOUT: 89
//
COMPOUND: CC1(C)OCC2=C(C1=O)C(c1ccc(F)c(Br)c1)C1=C(O)C(C)(C)OCC1=N2 (centres undefined)
QUANTITATIVE READOUT: 61
//
COMPOUND: CCC[C@H]1OC(O)=C2C1=NC1=C(C(=O)COC1)[C@H]2c1ccc(F)c(I)c1 (stereo in doubt; 41b)
QUANTITATIVE READOUT: 94

-- ask Tell me the measured Efficacy of CC1(C)OCC(=O)C2=C1N=C1COC(O)=C1C2c1ccc(F)c(Br)c1 (centres undefined) , please.
-- reply 73

----------
# ASSAYED SYSTEM: Sulfonylurea receptor 2, Kir6.2 (Homo sapiens, UniProt O60706+Q14654)
# Sequence (Q14654 whole entry): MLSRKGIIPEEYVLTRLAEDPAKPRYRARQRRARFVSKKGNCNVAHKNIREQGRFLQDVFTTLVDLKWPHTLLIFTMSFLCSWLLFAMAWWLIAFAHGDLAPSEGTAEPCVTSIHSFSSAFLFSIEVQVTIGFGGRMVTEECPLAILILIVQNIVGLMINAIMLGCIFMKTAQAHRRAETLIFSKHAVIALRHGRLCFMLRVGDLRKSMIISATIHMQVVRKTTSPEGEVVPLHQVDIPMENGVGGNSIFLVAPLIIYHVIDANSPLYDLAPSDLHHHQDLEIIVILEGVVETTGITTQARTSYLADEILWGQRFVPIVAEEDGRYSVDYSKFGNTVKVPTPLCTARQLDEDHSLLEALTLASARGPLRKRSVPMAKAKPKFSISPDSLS
# Sequence (O60706 whole entry): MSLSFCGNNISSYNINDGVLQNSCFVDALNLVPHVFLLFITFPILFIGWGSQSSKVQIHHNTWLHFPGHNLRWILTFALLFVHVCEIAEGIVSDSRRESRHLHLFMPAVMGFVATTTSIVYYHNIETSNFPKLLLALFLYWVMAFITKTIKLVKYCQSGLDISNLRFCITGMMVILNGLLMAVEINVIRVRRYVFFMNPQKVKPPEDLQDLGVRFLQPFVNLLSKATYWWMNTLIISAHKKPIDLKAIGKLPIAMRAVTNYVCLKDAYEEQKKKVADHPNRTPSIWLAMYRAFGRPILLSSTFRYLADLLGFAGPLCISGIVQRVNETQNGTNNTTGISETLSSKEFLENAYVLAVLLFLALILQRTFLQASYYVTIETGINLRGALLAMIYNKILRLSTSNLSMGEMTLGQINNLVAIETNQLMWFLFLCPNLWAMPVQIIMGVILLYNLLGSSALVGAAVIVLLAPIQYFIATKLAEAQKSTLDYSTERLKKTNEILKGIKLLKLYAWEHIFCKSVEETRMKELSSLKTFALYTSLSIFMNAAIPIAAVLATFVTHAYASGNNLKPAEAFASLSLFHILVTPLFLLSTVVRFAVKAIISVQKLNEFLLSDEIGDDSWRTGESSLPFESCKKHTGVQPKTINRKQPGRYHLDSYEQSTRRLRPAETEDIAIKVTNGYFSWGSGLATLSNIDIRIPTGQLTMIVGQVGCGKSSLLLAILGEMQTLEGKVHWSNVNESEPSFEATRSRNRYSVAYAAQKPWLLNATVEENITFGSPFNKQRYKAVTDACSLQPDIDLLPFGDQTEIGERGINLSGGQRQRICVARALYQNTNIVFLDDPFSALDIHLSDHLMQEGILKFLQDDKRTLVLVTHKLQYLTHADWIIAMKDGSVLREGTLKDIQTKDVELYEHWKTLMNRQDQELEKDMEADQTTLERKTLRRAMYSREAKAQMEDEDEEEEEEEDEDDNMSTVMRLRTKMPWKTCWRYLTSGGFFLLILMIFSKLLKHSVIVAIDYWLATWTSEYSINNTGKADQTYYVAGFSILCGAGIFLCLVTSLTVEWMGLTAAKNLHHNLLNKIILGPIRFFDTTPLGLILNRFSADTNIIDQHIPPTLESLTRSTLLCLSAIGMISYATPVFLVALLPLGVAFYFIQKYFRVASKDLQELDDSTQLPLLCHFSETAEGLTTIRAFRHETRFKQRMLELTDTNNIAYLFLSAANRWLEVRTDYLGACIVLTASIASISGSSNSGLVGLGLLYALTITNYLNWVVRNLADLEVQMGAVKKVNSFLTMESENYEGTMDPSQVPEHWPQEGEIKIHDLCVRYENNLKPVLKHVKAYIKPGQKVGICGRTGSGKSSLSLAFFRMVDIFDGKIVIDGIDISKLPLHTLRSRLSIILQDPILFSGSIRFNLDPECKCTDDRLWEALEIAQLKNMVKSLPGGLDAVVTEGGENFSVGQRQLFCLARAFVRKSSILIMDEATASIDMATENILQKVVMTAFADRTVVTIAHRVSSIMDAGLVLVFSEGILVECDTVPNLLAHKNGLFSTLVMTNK
# PROCEDURE TEXT: Activity against pig bladder KATP channel opening assessed as ability to relax field-stimulated pig detrusor
# Type: functional, Sus scrofa
# CONDITION NOTES: target entry is the homologue from another species
Some compounds, each annotated with its measured log10 of EC50.
Form field - Quantity: EC50; Unit: µM; Scale: log10

Examples with their reported log10 of EC50 follow.
COMPOUND: CC[C@H]1OCC(O)=C2C1=NC1=C(C(=O)COC1)[C@H]2c1ccc(Br)c(Cl)c1 (stereo in doubt; 76b)
QUANTITATIVE READOUT: 1.13
//
COMPOUND: CC[C@H]1OCC(O)=C2C1=NC1=C(C(=O)COC1)[C@H]2c1ccc(F)c(Br)c1 (stereo in doubt; 71a)
QUANTITATIVE READOUT: 0.31
//
COMPOUND: CC[C@H]1OC(O)=C2C1=NC1=C(C(=O)COC1)[C@H]2c1ccc(F)c(Br)c1 (stereo in doubt; 21b)
QUANTITATIVE READOUT: -0.55
//
COMPOUND: CCC[C@H]1OC(O)=C2C1=NC1=C(C(=O)COC1)[C@H]2c1ccc(F)c(Br)c1 (racemic)
QUANTITATIVE READOUT: -0.10

Now turn to the next compound.
-- ask Requested read-out: log10 of EC50. Entry: CC(C)C[C@@H]1OC(O)=C2C1=NC1=C(C(=O)COC1)[C@H]2c1ccc(F)c(Br)c1 (relative stereo)
-- reply -0.89

----------
# ASSAYED SYSTEM: Sulfonylurea receptor 2, Kir6.2 (Homo sapiens, UniProt O60706+Q14654)
# PROCEDURE TEXT: Activity against pig bladder KATP channel opening assessed as ability to relax spontaneous bladder contraction
# Assay type: functional, Sus scrofa
# CONDITION NOTES: target entry is the homologue from another species
Quick reference: EC50 of the listed items.
The answer is to be given in nM; state only the numeric part.

COMPOUND: CC[C@H]1OCC(O)=C2C1=NC1=C(C(=O)COC1)[C@H]2c1ccc(Br)c(Cl)c1 (stereo in doubt; 76b)
ASSAYED SYSTEM: Sulfonylurea receptor 2, Kir6.2 (Homo sapiens, UniProt O60706+Q14654)
QUANTITATIVE READOUT: 245

-- ask Item under review: CCC(C)(C)NC(=NC#N)Nc1cccnc1 . Reported EC50?
-- reply 21.9

-- ask May I ask what EC50 has been recorded for O=C1COCC2=C1C(c1ccc(F)c(Br)c1)C1=C(O)OCC1=N2 (stereo in doubt; 6b) ?
-- reply 0.676

-- ask Quick one: EC50 for CCc1cc(C#N)ccc1Nc1c(N[C@H](C)C(C)(C)C)c(=O)c1=O ?
-- reply 102

-- ask Look up EC50: CC[C@H]1OCC(O)=C2C1=NC1=C(C(=O)COC1)[C@H]2c1ccc(F)c(Br)c1 (stereo in doubt; 71a)
-- reply 129

-- ask Need EC50 of CC[C@H]1OC(O)=C2C1=NC1=C(C(=O)COC1)[C@H]2c1ccc(F)c(Br)c1 (stereo in doubt; 21b) , thanks.
-- reply 19.1

-- ask Record request: EC50 value, item CCCC[C@H]1OC(O)=C2C1=NC1=C(C(=O)COC1)[C@H]2c1ccc(F)c(Br)c1 (stereo in doubt; 29b)
-- reply 331

-- ask For the compound shown here, CC[C@H]1OCC(O)=C2C1=NC1=C(C(=O)COC1)[C@H]2c1ccc(Cl)c(Cl)c1 (stereo in doubt; 74b) , give the reported EC50.
-- reply 55

-- ask Please report the recorded EC50 for CCC[C@H]1OC(O)=C2C1=NC1=C(C(=O)COC1)[C@H]2c1ccc(F)c(Br)c1 (stereo in doubt; 23b) .
-- reply 28.8

Reference source for all entries: ChEMBL document CHEMBL1137338
